target: T1, TnMUC1 peptide (fully glycosylated), biotinylated; test: SPR (Biacore T200), peptide 36-2 on CAP chip, scFv as analyte, 1:1 fit; average
T1 construct: Two batches (36-2 and 65-1) of the same peptide; also called 36-2; 7-36-2
assay_endpoint: koff (s⁻¹)

humanised anti-TnMUC1 scFv protein 13P18 (19A), L2-H5 (scFv, Supernatant of construct 6D18 in the Octet assay; purified 13P18 elsewhere. scFv of CAR MB025; also called 6D18) scFv: DIVMTQSPDSLAVSLGERATINCKSSQSLLNSGDQKNYLTWYQQKPGQPPKLLIFWASTRESGVPDRFSGSGSGTDFTLTISSLQAEDVAVYYCQNDYSYPLTFGQGTKLEIKGGGGSGGGGSGGGGSGGGGSQVQLVQSGAEVKKPGSSVKVSCKASGYTFTDHAIHWVRQAPGQGLEWIGHFSPGNTDIKYNDKFKGRATLTVDRSTSTAYMELSSLRSEDTAVYFCKTSTFFFDYWGQGTTVTVSSAAAHHHHHH : 0.0013
humanised anti-TnMUC1 scFv protein 9P1 (88A), VL-VH humanised control (scFv, Control scFv designed from a humanised antibody of WO2015/159076 (10D2 is said to come from Ab2, so 10D1 by implication from Ab1); Neat supernatant of construct 10D1 in the Octet assay; purified protein 9P1 in Biacore and flow cytometry; also called 10D1) scFv: DIVMTQSPDSLAVSLGERATINCKSSQSLLNSGDQKNYLTWYQQKPGQPPKLLIYWASTRESGVPDRFSGSGSGTDFTLTISSLQAEDVAVYYCQNDYSYPLTFGQGTKVEIKGGGGSGGGGSGGGGSGGGGSQVQLVQSGAEVKKTGSSVKVSCKASGYTFTDHAIHWVRQAPGQALEWMGHFSPGNTDIKYNDKFKGRVTLTVDRSMSTAYMELSSLRSEDTAMYYCKTSTFFFDYWGQGTMVTVSSAAAHHHHHH : 0.00156
humanised anti-TnMUC1 scFv protein 16P4 (82A), L0-H3 (scFv, Supernatant of construct 6D4 in the Octet assay; purified 16P4 elsewhere. scFv of CAR MB021; also called 6D4) scFv: DIVMTQSPDSLAVSLGERATINCKSSQSLLNSGDQKNYLTWYQQKPGQPPKLLIYWASTRESGVPDRFSGSGSGTDFTLTISSLQAEDVAVYYCQNDYSYPLTFGQGTKLEIKGGGGSGGGGSGGGGSGGGGSQVQLVQSGAEVKKPGSSVKVSCKASGYTFTDHAIHWVRQAPGQGLEWMGHFSPGNTDIKYNDKFKGRVTITADKSTSTAYMELSSLRSEDTAVYYCKTSTFFFDYWGQGTTVTVSSAAAHHHHHH : 0.00687
humanised anti-TnMUC1 scFv protein 11P6 (89A), L0-H5 (scFv, Supernatant of construct 6D6 in the Octet assay; purified 11P6 elsewhere; also called 6D6) scFv: DIVMTQSPDSLAVSLGERATINCKSSQSLLNSGDQKNYLTWYQQKPGQPPKLLIYWASTRESGVPDRFSGSGSGTDFTLTISSLQAEDVAVYYCQNDYSYPLTFGQGTKLEIKGGGGSGGGGSGGGGSGGGGSQVQLVQSGAEVKKPGSSVKVSCKASGYTFTDHAIHWVRQAPGQGLEWIGHFSPGNTDIKYNDKFKGRATLTVDRSTSTAYMELSSLRSEDTAVYFCKTSTFFFDYWGQGTTVTVSSAAAHHHHHH : 0.00137
humanised anti-TnMUC1 scFv protein 13P16 (97A), L2-H3 (scFv, Supernatant of construct 6D16 in the Octet assay; purified 13P16 elsewhere. scFv of CAR MB024; also called 6D16) scFv: DIVMTQSPDSLAVSLGERATINCKSSQSLLNSGDQKNYLTWYQQKPGQPPKLLIFWASTRESGVPDRFSGSGSGTDFTLTISSLQAEDVAVYYCQNDYSYPLTFGQGTKLEIKGGGGSGGGGSGGGGSGGGGSQVQLVQSGAEVKKPGSSVKVSCKASGYTFTDHAIHWVRQAPGQGLEWMGHFSPGNTDIKYNDKFKGRVTITADKSTSTAYMELSSLRSEDTAVYYCKTSTFFFDYWGQGTTVTVSSAAAHHHHHH : 0.00653
humanised anti-TnMUC1 scFv protein 11P12 (94A), L1-H5 (scFv, Supernatant of construct 6D12 in the Octet assay; purified 11P12 elsewhere; also called 6D12) scFv: ELVMTQSPDSLAVSLGERATINCKSSQSLLNSGDQKNYLTWYQQKPGQPPKLLIYWASTRESGVPDRFSGSGSGTDFTLTISSLQAEDVAVYYCQNDYSYPLTFGQGTKLEIKGGGGSGGGGSGGGGSGGGGSQVQLVQSGAEVKKPGSSVKVSCKASGYTFTDHAIHWVRQAPGQGLEWIGHFSPGNTDIKYNDKFKGRATLTVDRSTSTAYMELSSLRSEDTAVYFCKTSTFFFDYWGQGTTVTVSSAAAHHHHHH : 0.00155
humanised anti-TnMUC1 scFv protein 13P24 (77A), L3-H5 (scFv, Two purification lots (13P24, 28P24); also called 28P24; 6D24) scFv: ELVMTQSPDSLAVSLGERATINCKSSQSLLNSGDQKNYLTWYQQKPGQPPKLLIFWASTRESGVPDRFSGSGSGTDFTLTISSLQAEDVAVYYCQNDYSYPLTFGQGTKLEIKGGGGSGGGGSGGGGSGGGGSQVQLVQSGAEVKKPGSSVKVSCKASGYTFTDHAIHWVRQAPGQGLEWIGHFSPGNTDIKYNDKFKGRATLTVDRSTSTAYMELSSLRSEDTAVYFCKTSTFFFDYWGQGTTVTVSSAAAHHHHHH : 0.00133
